Please provide measured log10 of TGI for the entries that follow.
- Test system: UACC-62 melanoma
- test: NCI tumour cell line growth inhibition, 48 h
The figures below represent log10 of TGI, where TGI is stated in µM.

Ask | Please look at COc1ccc2c3c([nH]c2c1)C(=O)c1nc(C)ccc1C3=O and tell me its recorded log10 of TGI on UACC-62 melanoma.
Reply | 0.49

Ask | Please look at CN(C)C=Nc1ccc2c3c(cccc13)-c1ccccc1-2 and tell me its recorded log10 of TGI on UACC-62 melanoma.
Reply | 1.59

Ask | Please look at CC(=O)O[C@@H]1C(C2CCCCC2)C=[N+]([O-])O[C@@H]1OC1CCCC1(c1ccccc1)c1ccccc1 (stereo partly drawn) and tell me its recorded log10 of TGI on UACC-62 melanoma.
Reply | 1.29

Ask | Please look at N#C/C(=C\c1ccc2c(c1)OCO2)n1nnc2ccccc21 and tell me its recorded log10 of TGI on UACC-62 melanoma.
Reply | 1.27

Ask | Please look at COc1cc(/C=C\c2cc(/C=C\c3ccc(O)c(OC)c3)n(C(=O)COc3ccc(Cl)cc3Cl)n2)ccc1O and tell me its recorded log10 of TGI on UACC-62 melanoma.
Reply | 1.08

Ask | Please look at CC(=O)Oc1ccc2c3c1[C@H]1O[C@H]1c1cccc(c1-3)[C@@H]1O[C@H]21 and tell me its recorded log10 of TGI on UACC-62 melanoma.
Reply | 1.32

Ask | Please look at CC1OC(OC2C(O)COC(OC3C(C)OC(OC4C(OC(=O)[C@]56CCC(C)(C)C[C@@H]5C5=CCC7[C@@]8(C)C[C@H](O)[C@H](OC9OC(CO)C(O)C(O)C9O)[C@@](C)(CO)[C@@H]8CC[C@@]7(C)[C@]5(C)CC6)OCC(O)C4O)C(O)C3OC3OCC(O)C(O)C3O)C2O)C(O)C(O)C1O (stereo partly drawn) and tell me its recorded log10 of TGI on UACC-62 melanoma.
Reply | 1.61

Ask | Please look at Cc1ccc(C2CC(c3cccc(Nc4ccncc4)c3)=NN2c2cc(Cl)cc(Cl)c2)cc1 (stereo not drawn) and tell me its recorded log10 of TGI on UACC-62 melanoma.
Reply | 0.51

Origin of measurements: PubChem BioAssay (NCI)
